System: NCI-H522 lung
ASSAY PROCEDURE: NCI tumour cell line growth inhibition, 48 h
Overview of reported TGI across a group of compounds:

{"COMPOUND": "Cn1cc(C2=C(c3cn(C)c4cc(C(N)=O)ccc34)C(=O)NC2=O)c2ccccc21", "TGI": "3.2 µM"}
{"COMPOUND": "COC1C(O)=C2C(=O)O/C(C)=C/C=C/C=C/C=C\\CC(c3ccccc3)NC(=O)\\C=C/C=C\\C=C\\C=C\\[C@@]2(C)[C@@H]1O (stereo not given in full)", "TGI": "< 0.0285 µM"}
{"COMPOUND": "COc1cc2c3c(c4cc(OC)c(OC)cc4c2cc1OC)C(=O)C1CCC(=O)N1C3 (stereo not given)", "TGI": "23.3 µM"}
{"COMPOUND": "C1CSCCSCCS1", "TGI": "> 100 µM"}
{"COMPOUND": "CCOP(=O)(O)C(C)(C)NC", "TGI": "> 100 µM"}
{"COMPOUND": "COC1[C@@H](OC(C)=O)[C@@H](NC(=O)C(Cl)(Cl)Cl)C(I)[C@@H](N2C(=O)c3ccccc3C2=O)[C@H]1OC (stereo not given in full)", "TGI": "> 100 µM"}
{"COMPOUND": "O=C(/C=C/C=C/c1ccccc1)c1ccc2c(c1)CCCC2", "TGI": "37.7 µM"}
{"COMPOUND": "CC(=O)O[C@H]1CCC2[C@@H]3CCC4=C(O)c5nocc5C[C@]4(C)C3CC[C@@]21C (stereo not given in full)", "TGI": "> 100 µM"}
{"COMPOUND": "Cc1ccc(S(=O)(=O)N/N=C/c2oc(-c3ccncc3)c(-c3ccncc3)c2[N+](=O)[O-])cc1", "TGI": "> 100 µM"}
{"COMPOUND": "O=C(CSc1nnc(-c2ccc(N=Cc3ccc(Cl)cc3)cc2)o1)Nc1ccc(Cl)cc1", "TGI": "> 100 µM"}

---

Test system: MCF7 breast
ASSAY PROCEDURE: NCI tumour cell line growth inhibition, 48 h
Attribute: TGI

{"COMPOUND": "CC(C)=CCc1c(O)ccc2ccc(=O)oc12", "TGI": "> 100 µM"}
{"COMPOUND": "CC(=O)OC1O[C@@H](C(C)(C)O)CC[C@@H]1[C@H]1CC[C@@]2(C)C3=C(CC[C@]12C)[C@@]1(C)C[C@@H](OC(=O)CC(C)(O)CC(=O)O)[C@H](OC(C)=O)C(C)(C)C1CC3 (stereo partly drawn)", "TGI": "32.5 µM"}
{"COMPOUND": "COc1ccncc1C#Cc1cncc(C(=O)Nc2ccc(CN3CCN(C)CC3)c(C(F)(F)F)c2)c1", "TGI": "94.6 µM"}
{"COMPOUND": "Cc1cc(OCc2nnc3n2N=C(c2cc(F)c(Cl)cc2Cl)/C(=C/c2ccc(Cl)cc2)S3)ccc1Cl", "TGI": "87.9 µM"}
{"COMPOUND": "CC(CCC#N)(CCC#N)C(=O)CC(O)(C(F)(F)F)C(F)(F)F", "TGI": "21.2 µM"}
{"COMPOUND": "C=CCCCCCCCCCCC1(O)C=CC2=[N+](CCCCCN=C(N)N)CCCN21 (stereo not drawn)", "TGI": "40.8 µM"}
{"COMPOUND": "COc1ccc(C(OCC2OC(n3cc(C)c(=O)[nH]c3=O)CC2n2cc(Cn3cc(Br)c(=O)[nH]c3=O)nn2)(c2ccccc2)c2ccccc2)cc1 (stereo not drawn)", "TGI": "> 100 µM"}
{"COMPOUND": "CC1C[C@]2(C)C(=O)Nc3ccccc3[C@@H]2Nc2ccccc21 (stereo partly drawn)", "TGI": "84.9 µM"}
